# subject-of-test: Peroxisome proliferator-activated receptor gamma (Homo sapiens, UniProt P37231)
# Sequence (P37231 whole entry): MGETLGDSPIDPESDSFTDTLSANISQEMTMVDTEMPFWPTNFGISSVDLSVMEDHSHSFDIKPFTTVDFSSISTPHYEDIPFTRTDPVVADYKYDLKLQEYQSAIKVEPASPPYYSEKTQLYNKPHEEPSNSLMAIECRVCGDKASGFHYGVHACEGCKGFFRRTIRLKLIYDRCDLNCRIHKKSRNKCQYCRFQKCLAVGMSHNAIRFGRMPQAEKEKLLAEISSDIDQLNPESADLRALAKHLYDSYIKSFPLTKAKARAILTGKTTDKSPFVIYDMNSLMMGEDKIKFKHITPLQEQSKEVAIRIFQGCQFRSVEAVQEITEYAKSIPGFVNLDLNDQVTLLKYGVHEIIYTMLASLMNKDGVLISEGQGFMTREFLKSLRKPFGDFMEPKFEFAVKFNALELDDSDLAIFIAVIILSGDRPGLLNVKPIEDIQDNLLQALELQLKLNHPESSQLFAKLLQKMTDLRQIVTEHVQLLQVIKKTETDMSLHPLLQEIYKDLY
Decision: IC50 beneath 20 nM gives 1; IC50 meeting or exceeding 20 nM gives 0.

[
  {
    "molecule-smiles": "Cc1oc(-c2ccc(-c3ccccc3)cc2)nc1CCOc1ccc(CCC(=O)O)c2c1CCN(C(=O)OCC(C)(C)C)C2",
    "discrete-label": 0
  },
  {
    "molecule-smiles": "Cc1oc(-c2ccccc2)nc1CCOc1ccc(CCC(=O)O)c2c1CCN(C(=O)OCC(C)C)C2",
    "discrete-label": 1
  },
  {
    "molecule-smiles": "CCCOC(=O)N1CCc2c(OCCc3nc(-c4ccc(-c5ccccc5)cc4)oc3C)ccc(CCC(=O)O)c2C1",
    "discrete-label": 0
  },
  {
    "molecule-smiles": "C#CCOC(=O)N1CCc2c(OCCc3nc(-c4ccccc4)oc3C)ccc(CCC(=O)O)c2C1",
    "discrete-label": 0
  },
  {
    "molecule-smiles": "CCCOC(=O)N1CCc2c(OCCc3nc(-c4ccccc4)oc3C)ccc(CCC(=O)O)c2C1",
    "discrete-label": 1
  }
]

Reference for the values: ChEMBL document CHEMBL1146163
